Biological target: glycerol-3-phosphate dehydrogenase (GPDH) (Rattus norvegicus)
Construct: The activity of GPDH in intact mitochondria (0.3 mg/mL) was measured; from tissue; host or cells: rat skeletal muscle mitochondria (Wistar, Harlan Laboratories)
Sequence (P35571 43-727): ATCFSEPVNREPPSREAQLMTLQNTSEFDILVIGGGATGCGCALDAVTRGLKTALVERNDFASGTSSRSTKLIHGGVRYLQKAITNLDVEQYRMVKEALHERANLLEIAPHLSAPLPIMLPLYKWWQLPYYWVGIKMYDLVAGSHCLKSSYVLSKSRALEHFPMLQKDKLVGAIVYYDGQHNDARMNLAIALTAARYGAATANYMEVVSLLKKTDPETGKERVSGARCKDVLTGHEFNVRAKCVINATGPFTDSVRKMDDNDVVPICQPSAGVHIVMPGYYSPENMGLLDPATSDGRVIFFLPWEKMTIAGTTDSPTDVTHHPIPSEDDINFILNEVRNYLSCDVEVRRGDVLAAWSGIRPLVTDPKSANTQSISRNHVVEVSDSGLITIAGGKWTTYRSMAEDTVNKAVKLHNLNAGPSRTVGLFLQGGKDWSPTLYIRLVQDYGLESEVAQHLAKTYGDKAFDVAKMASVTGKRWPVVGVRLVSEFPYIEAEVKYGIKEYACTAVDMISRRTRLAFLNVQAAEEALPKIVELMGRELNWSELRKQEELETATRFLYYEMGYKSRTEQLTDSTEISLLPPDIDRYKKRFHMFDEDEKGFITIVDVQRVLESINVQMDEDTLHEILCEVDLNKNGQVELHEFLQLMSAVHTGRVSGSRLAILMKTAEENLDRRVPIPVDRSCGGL
Test: High-throughput screen: ROS production from glycerol-3-phosphate dehydrogenase (GPDH)
Format: biochemical
Set-up: dose or concentration left out as unconfirmed
Conditions: Table 7; percent change in ROS from DMSO controls
property-measured: inhibition (%)
The response must be a number in % with no trailing unit.

Example entries begin here.
[[record]]
molecule = "Fc1ccc(SCCc2ccccn2)cc1 [Compound 42]"
property_measured = "inhibition"
test_value = 0.3

[[record]]
molecule = "Cc1ccc(NC(=O)CCC(=O)O)cc1 [Compound 67]"
property_measured = "inhibition"
test_value = 11.1

[[record]]
molecule = "O=C(Nc1ccccc1F)[C@@H]1C2C=CC(C2)[C@@H]1C(=O)O (stereo partly shown) [Compound 20]"
property_measured = "inhibition"
test_value = 1.7

[[record]]
molecule = "O=C(O)CCC(=O)Nc1ccc(-c2nc3cc(NC(=O)CCC(=O)O)ccc3[nH]2)cc1 [Compound 57]"
property_measured = "inhibition"
test_value = -0.2

[[record]]
molecule = "O=C(O)CCC(=O)Nc1ccc(-c2nc3ccccc3o2)cc1 [Compound 50]"
property_measured = "inhibition"
test_value = 12.2


inhibition for C=C(C)CN(CC)Cc1cc([N+](=O)[O-])ccc1Cl [Compound 45] is -3.1

inhibition for CC1=CC(C)(C)N(Cc2ccc([N+](=O)[O-])cc2)c2ccccc21 [Compound 37] is 0.6
